Target: HMG-CoA reductase (Bos taurus)
Assay: Compound was evaluated for inhibitory activity against HMG-CoA reductase in bovine ocular cell preparation
assay_readout: IC50 (nM)
Give the value in nM but do not write nM after it.

Request: # get_value(readout= IC50, system= HMG-CoA reductase (Bos taurus)) for Cn1nnnc1C(/C=C/[C@@H](O)C[C@@H](O)CC(=O)O)=C(c1ccc(F)cc1)c1ccc(F)cc1
Result: 3000

Origin of measurements: BindingDB's records for doi:10.1016/S0960-894X(00)80623-X
